- target_of_assay: Thermococcus sp. DNA polymerase (R671S/K677S/K712S)/N210D R671S,K677S,K712S,N210D (Thermococcus sp.)
- experiment: EMSA
- assay_context: EMSA as for Taq, 1x TAE with 2 mM EDTA
measurement_kind: pKd
FYI, pKd means -log10 of a concentration in mol per litre.

Return pKd for the following sequence: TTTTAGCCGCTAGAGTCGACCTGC / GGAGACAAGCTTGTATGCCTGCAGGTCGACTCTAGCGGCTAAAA [24/44 nt template-primer duplex] 6.72

For the sequence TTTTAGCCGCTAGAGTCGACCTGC [24 nt primer] , report pKd. 6.36
